Kindly state Ratio Ki for each of the entries shown.
- Organism: Rattus norvegicus
- protocol.details: Selectivity index, ratio of Ki for rat brain sigma2 receptor to Ki for rat brain sigma1 receptor
Answers are plain numbers.

Working through the 2 compounds below one at a time, give Ratio Ki for each.
1. Oc1cccc2c1O[C@H]1CCC[C@H]3CN(CC4CC4)CC[C@@]231 (stereo in doubt; (+)-1b)
2. Oc1cccc2c1O[C@H]1CCC[C@H]3CN(CCc4ccccc4)CC[C@@]231 (stereo in doubt; (-)-1c)

1: 5.1; 2: 23

----------
- protocol.details: Binding affinity to sigma receptor
measurement.name: Ki (µM)
Give bare numbers, in µM.

Quick check: Ki of Oc1cccc2c1O[C@H]1CCC[C@H]3CN(CC4CC4)CC[C@@]231 (racemic) ?
0.021
